Assay: Quantitative High-Throughput drug screen in 47 multiple myeloma cell lines against the NCATS MIPE library collection: NCIH929_DSMZ cell viability assay (AID 1918978); also: nearly all actives have a fitted effect of over 35% in size
Details: NCI-H929 myeloma viability, CellTiter-Glo ATP, 48 h; series mostly up to 45.8 µM
Inconclusive results are not listed. Activity calls are given as the source filed them. Calls follow the shape of the dose curve; as a rule, active = well fitted cell-killing curve with a large enough effect; inconclusive = small, poorly fitted or top-dose-only effect; inactive = no such curve, though single readings can be large or run the other way.
Reply using exactly one outcome from true (1) (active), false (0) (inactive)

Example entries begin here.
CNS(=O)(=O)CCc1ccc2[nH]cc(C3CCN(C)CC3)c2c1: true (1)
COC(=O)Nc1nc2ccc(Sc3ccccc3)cc2[nH]1: true (1)
CN1CCCC(n2nc(Cc3ccc(Cl)cc3)c3ccccc3c2=O)CC1 (stereo unspecified): true (1)
O=C(O)c1cc(=O)[nH]c(=O)[nH]1: false (0)
C[C@@H](CN1CC(=O)NC(=O)C1)N1CC(=O)NC(=O)C1: true (1)

Query: Hello, I am checking results. What call was entered for "Cc1ccc(S(=O)(=O)N[C@@H](Cc2ccccc2)C(=O)CCl)cc1" ?
Reply: true (1)

---

Assay: qHTS profiling of the MIPE4 collection as inhibitors of Plasmodium falciparum (DD2) proliferation (AID 743345)
Details: P. falciparum Dd2 in erythrocytes, SYBR Green DNA, 72 h; at 28.5 µM (top of the series) unless noted
quantity-measured: parasite growth remaining, % of DMSO control (lower = more inhibition) (%)
Just the number in %, nothing appended.

NC(=O)c1cccnc1: 97.3
CNS(=O)(=O)CCc1ccc2[nH]cc(C3CCN(C)CC3)c2c1: 87.2
C#CCN[C@@H]1CCc2ccccc21: 129
CC1=CC(=O)c2ccccc2C1=O: 48
COc1ccccc1OCC(O)COC(N)=O (stereo unspecified): 96.9
COC(=O)Nc1nc2ccc(S(=O)c3ccccc3)cc2[nH]1 (stereo unspecified): 82.8
O=c1cc(O)c(Cl)c[nH]1: 122
CCC(=O)O[C@]1(C(=O)SCF)[C@H](C)C[C@H]2[C@@H]3C[C@H](F)C4=CC(=O)C=C[C@]4(C)[C@@]3(F)[C@@H](O)C[C@@]21C: 86.3
Cc1cccc(N(C)C(=S)Oc2ccc3ccccc3c2)c1: 84.1

API: the following record is the query input.
Query: parasite growth remaining, % of DMSO control (lower = more inhibition); subject: "CC(C)(C)C(=O)OCOP(=O)(COCCn1cnc2c(N)ncnc21)OCOC(=O)C(C)(C)C"
Reply: 96.8

---

Assay: Quantitative High-Throughput drug screen in 47 multiple myeloma cell lines against the NCATS MIPE library collection: MOLP8_DSMZ cell viability assay (AID 1918977);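 also: 100% = DMSO-only wells and 0% = media-only wells without cells; nearly all actives have a fitted effect of over 45% in size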
Conditions: MOLP8 myeloma viability, CellTiter-Glo ATP luminescence, 48 h; series mostly up to 45.8 µM
Results filed as inconclusive are left out. The source made the active and inactive calls. Calls come from the whole dose curve; as a rule, active = well fitted cell-killing curve with a large enough effect; inconclusive = small, poorly fitted or top-dose-only effect, or effect the other way; inactive = no such curve, though single readings can be large or run the other way.
Reply using exactly one outcome from class 1 (active), class 0 (inactive)

Query: Hello, I am checking results. What call was entered for "CCn1cc(C(=O)O)c(=O)c2cc(F)c(N3CCN(C)CC3)cc21" ?
Reply: class 0

Query: Hello, I am checking results. What call was entered for "COc1ncnc(NS(=O)(=O)c2ccc(N)cc2)c1OC" ?
Reply: class 0

Query: Hello, I am checking results. What call was entered for COc1c(N2CCNC(C)C2)c(F)cc2c(=O)c(C(=O)O)cn(C3CC3)c12 (stereo unspecified) ?
Reply: class 0

---

Assay: Quantitative High-Throughput drug screen in 47 multiple myeloma cell lines against the NCATS MIPE library collection: PE2_PLB cell viability assay (AID 1919869); also: nearly all actives have a fitted effect of over 35% in size
Details: PE2_PLB myeloma cells viability, ATP luminescence, 48 h; series mostly up to 45.8 µM
Records with an inconclusive call do not appear. Calls of active or inactive are those of the source. Calls come from the whole dose curve; as a rule, active = well fitted cell-killing curve with a large enough effect; inconclusive = small, poorly fitted or top-dose-only effect, or effect the other way; inactive = no such curve, though single readings can be large or run the other way.
Reply using exactly one outcome from active, inactive

O=C(O)CSCC(=O)NC1CCSC1=O (stereo not given): inactive
OC(Cn1cncn1)(Cn1cncn1)c1ccc(F)cc1F: inactive
Cc1oc(=O)oc1CN1CCN(c2cc3c(cc2F)c(=O)c(C(=O)O)c2n3C(C)S2)CC1 (stereo not given): active
Nc1nc(=S)c2[nH]cnc2[nH]1: active
CC1=NN(c2ccccc2)C(=O)C1: inactive
COc1cc([C@@H]2c3cc4c(cc3[C@H](O)[C@H]3COC(=O)[C@H]23)OCO4)cc(OC)c1OC: inactive
CCC(=O)O[C@]1(C(=O)SCF)[C@H](C)C[C@H]2[C@@H]3C[C@H](F)C4=CC(=O)C=C[C@]4(C)[C@@]3(F)[C@@H](O)C[C@@]21C: inactive
NC(=O)c1ccc2[nH]ccc2c1: inactive

Query: Hello, I am checking results. What call was entered for "COC(c1ccccc1)(c1ccccc1)[C@H](Oc1nc(C)cc(C)n1)C(=O)O" ?
Reply: inactive

Query: Hello, I am checking results. What call was entered for "C#CCN[C@@H]1CCc2ccccc21" ?
Reply: inactive

Query: Hello, I am checking results. What call was entered for CCCCS(=N)(=O)CCC(N)C(=O)O (stereo not given) ?
Reply: inactive

Query: Hello, I am checking results. What call was entered for "Nc1[nH]c(=O)ncc1F" ?
Reply: inactive

Query: Hello, I am checking results. What call was entered for "COc1cnc(NS(=O)(=O)c2ccc(N)cc2)nc1" ?
Reply: inactive

Query: Hello, I am checking results. What call was entered for "Nc1nc(F)nc2c1ncn2[C@@H]1O[C@H](CO)[C@@H](O)[C@@H]1O" ?
Reply: active

Query: Hello, I am checking results. What call was entered for "Cc1nnc(C(=O)NC(C)(C)c2nc(C(=O)NCc3ccc(F)cc3)c(O)c(=O)n2C)o1" ?
Reply: inactive

Query: Hello, I am checking results. What call was entered for CC(N)C12CC3CC(CC(C3)C1)C2 (stereo not given) ?
Reply: inactive

Query: Hello, I am checking results. What call was entered for "O=C(O)c1cccnc1" ?
Reply: inactive

Query: Hello, I am checking results. What call was entered for CC1=C(C(=O)O)N2C(=O)[C@@H](NC(=O)C(N)c3ccccc3)[C@H]2SC1 (stereo not given in full) ?
Reply: inactive

Query: Hello, I am checking results. What call was entered for "NC(N)=NC(N)=NCCc1ccccc1" ?
Reply: active

Query: Hello, I am checking results. What call was entered for CCOCC(O)COc1ccc(NC(=O)CC[S+](C)C)cc1 (stereo not given) ?
Reply: inactive

---

compounds and their reported cell viability, % of control (lower = more cytotoxic)
Assay: High-throughput drug toxicity screening in the BPDCN cell line Gen2.2 (AID 1224824);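 also: cells exposed to compounds for 48 h before reading; 100% = DMSO and 0% = bortezomib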
Conditions: Gen2.2 BPDCN cells; at 45.8 µM (top of the series) unless noted
Just the number in %, nothing appended.

O=S(=O)(O)CCS: 25.9
O=C(O)c1cccnc1: 127
CC(C)(C#N)c1cc(Cn2cncn2)cc(C(C)(C)C#N)c1: 47

Query: cell viability, % of control (lower = more cytotoxic); subject: "CC[C@H](C)C(=O)O[C@H]1C[C@@H](C)C=C2C=C[C@H](C)[C@H](CC[C@@H]3C[C@@H](O)CC(=O)O3)[C@H]21"
Reply: 8.11

Query: cell viability, % of control (lower = more cytotoxic); subject: "CCn1cc(C(=O)O)c(=O)c2cc(F)c(N3CCNCC3)nc21"
Reply: 194

Query: cell viability, % of control (lower = more cytotoxic); subject: "O=C(O)c1ccc(-n2nc(-c3ccccc3O)nc2-c2ccccc2O)cc1"
Reply: 142

Query: cell viability, % of control (lower = more cytotoxic); subject: CC1=C(C(=O)O)N2C(=O)[C@@H](NC(=O)C(N)c3ccccc3)[C@H]2SC1 (stereo partly specified)
Reply: 114

Query: cell viability, % of control (lower = more cytotoxic); subject: NS(=O)(=O)c1cc2c(cc1Cl)NC(C(Cl)Cl)NS2(=O)=O (stereo unspecified)
Reply: 43.4

Query: cell viability, % of control (lower = more cytotoxic); subject: "Cc1nnc(C(=O)NC(C)(C)c2nc(C(=O)NCc3ccc(F)cc3)c(O)c(=O)n2C)o1"
Reply: 126

Query: cell viability, % of control (lower = more cytotoxic); subject: "CO[C@@]12[C@H](COC(N)=O)C3=C(C(=O)C(C)=C(N)C3=O)N1C[C@@H]1N[C@@H]12"
Reply: 2.55

Query: cell viability, % of control (lower = more cytotoxic); subject: "CCCCOc1ccc(CC(=O)NO)cc1"
Reply: 37

---

Experiment: Cell Viability - LYMP1-002 - Assay at 40 hr (AID 994);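 also: 0% = DMSO only and full inhibition = 92 µM tetraoctylammonium bromide; nearly all actives have a fitted effect of over 60% in size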
Details: LYMP1-002 lymphoblastoid cell viability; series mostly up to 92.2 µM
Inconclusive results are not listed. Calls of active or inactive are those of the source. The call rests on the fitted dose curve; in most records, active means well fitted cell-killing curve with a large enough effect; inconclusive means small, poorly fitted or top-dose-only effect; inactive means flat fitted curve, though single readings scatter.
quantity-measured: outcome

Study these solved cases before continuing.
Cc1ncc([N+](=O)[O-])n1CCO: inactive
Cc1nnc(NS(=O)(=O)c2ccc(N)cc2)s1: inactive
Cc1ccnc2c1NC(=O)c1cccnc1N2C1CC1: inactive
O=C(N[C@H](CO)[C@H](O)c1ccc([N+](=O)[O-])cc1)C(Cl)Cl: inactive
Cc1noc(NS(=O)(=O)c2ccc(N)cc2)c1C: inactive

API: the following record is the query input.
Query: outcome; subject: "COc1ccc2cc3[n+](cc2c1OC)CCc1cc2c(cc1-3)OCO2"
Reply: inactive
